- Assayed Target: Hp-Fld (H. pylori flavodoxin) (Helicobacter pylori)
- Construct: gene fldA; recombinant from pET28a-fldA in E. coli BL21 (DE3); DEAE purification, no tag mentioned; FMN added during lysis, transformed into holoprotein if needed
- Sequence (O25776 1-164): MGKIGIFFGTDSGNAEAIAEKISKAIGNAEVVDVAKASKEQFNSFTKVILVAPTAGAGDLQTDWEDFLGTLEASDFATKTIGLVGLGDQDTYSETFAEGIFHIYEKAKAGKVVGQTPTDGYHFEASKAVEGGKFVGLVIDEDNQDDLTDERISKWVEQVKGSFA
- Experimental Protocol: isothermal titration calorimetry
- Type: binding
- Measurement Setup: read-out: IV-c / Kd^b
pKd: −log10 of the molar value.

{"columns": ["Compound", "pKd"],
 "data": [
  ["COc1ccc(CSc2cc(Cl)c(N)c3nonc23)cc1 [IV-c]", 6.17]
]}

* * *

- Assayed Target: Hp-Fld (H. pylori flavodoxin) (Helicobacter pylori, UniProt O25776)
- Construct: gene fldA; recombinant from pET28a-fldA in E. coli BL21 (DE3); DEAE purification, no tag mentioned; FMN added during lysis, transformed into holoprotein if needed
- Experimental Protocol: biochemical
- Parameters: isothermal titration calorimetry of compounds binding to recombinant wild-type Hp-Fld, pH 9
pKd: −log10 of the molar value.
Listed molecules paired with reported pKd
Measurement Name: pKd

{"columns": ["Molecule", "Test Value"],
 "data": [
  ["Nc1ccc([S+]([O-])Cc2ccc(OCC(O)CO)cc2)c2nonc12 (racemic) [rac-IV-l]", 5.78],
  ["O=[N+]([O-])c1ccc(SCc2ccc(OCC(O)CO)cc2)c2nonc12 (racemic) [rac-IV-j]", 5.63],
  ["COc1ccc(CSc2ccc(N)c3nonc23)cc1 [IV-a]", 5.28],
  ["COc1ccc(C2(C)SCc3cc(C)c(C)cc3CS2)cc1 [IV-b]", 6.04],
  ["Nc1ccc(SCc2ccc(OCC(O)CO)cc2)c2nonc12 (racemic) [rac-IV-k]", 5.47],
  ["COc1ccc(C[S+]([O-])c2ccc(N)c3nonc23)cc1 (stereo not drawn) [IV-d]", 5.81]
]}

* * *

- Assayed Target: Hp-Fld (H. pylori flavodoxin) (Helicobacter pylori, UniProt O25776)
- Construct: gene fldA; recombinant from pET28a-fldA in E. coli BL21 (DE3); DEAE purification, no tag mentioned; FMN added during lysis, transformed into holoprotein if needed
- Experimental Protocol: isothermal titration calorimetry
- Assay type: binding
- Measurement Setup: read-out: IV / Kd^b
pKd: −log10 of the molar value.
Measurement Name: pKd

{"columns": ["Molecule", "Assayed Target", "Test Value"],
 "data": [
  ["COc1ccc(CSc2ccc([N+](=O)[O-])c3nonc23)cc1", "Hp-Fld (H. pylori flavodoxin) (Helicobacter pylori, UniProt O25776)", 6.32]
]}

* * *

- Assayed Target: Hp-Fld (H. pylori flavodoxin) (Helicobacter pylori, UniProt O25776, D142Y)
- Experimental Protocol: biochemical
pKd: −log10 of the molar value.

{"columns": ["Molecule", "pKd"],
 "data": [
  ["COc1ccc(CSc2cc(Cl)c(N)c3nonc23)cc1", 6.36],
  ["COc1ccc(CSc2ccc([N+](=O)[O-])c3nonc23)cc1", 5.93]
]}

* * *

- Assayed Target: Hp-Fld (H. pylori flavodoxin) (Helicobacter pylori, UniProt O25776, T116W)
- Experimental Protocol: biochemical
- Text: isothermal titration calorimetry on Hp-Fld (H. pylori flavodoxin)

{"columns": ["Compound", "Assayed Target", "Unit Of Measure", "Kd"],
 "data": [
  ["COc1ccc(CSc2ccc([N+](=O)[O-])c3nonc23)cc1 [IV]", "Hp-Fld (H. pylori flavodoxin) (Helicobacter pylori, UniProt O25776, T116W)", "nM", 1100],
  ["COc1ccc(CSc2cc(Cl)c(N)c3nonc23)cc1 [IV-c]", "Hp-Fld (H. pylori flavodoxin) (Helicobacter pylori, UniProt O25776, T116W)", "nM", 1430]
]}

* * *

- Assayed Target: Hp-Fld (H. pylori flavodoxin) (Helicobacter pylori, UniProt O25776, N14A)
- Experimental Protocol: biochemical
- Text: isothermal titration calorimetry on Hp-Fld (H. pylori flavodoxin)

{"columns": ["Molecule", "Kd"],
 "data": [
  ["COc1ccc(CSc2cc(Cl)c(N)c3nonc23)cc1", "1.76 µM"],
  ["COc1ccc(CSc2ccc([N+](=O)[O-])c3nonc23)cc1", "0.45 µM"]
]}

* * *

Each record here notes measured pKd.
- Assayed Target: Hp-Fld (H. pylori flavodoxin) (Helicobacter pylori, UniProt O25776, V113W)
- Construct: gene fldA
- Experimental Protocol: biochemical
pKd: −log10 of the molar value.
Measurement Name: pKd

{"columns": ["Molecule", "Test Value"],
 "data": [
  ["COc1ccc(CSc2cc(Cl)c(N)c3nonc23)cc1", 5.84],
  ["COc1ccc(CSc2ccc([N+](=O)[O-])c3nonc23)cc1", 6.30]
]}

These data points were gathered from paper PMC8467567.
